Target: Recombinant NAMPT protein (Homo sapiens)
Sequence (P43490 whole entry): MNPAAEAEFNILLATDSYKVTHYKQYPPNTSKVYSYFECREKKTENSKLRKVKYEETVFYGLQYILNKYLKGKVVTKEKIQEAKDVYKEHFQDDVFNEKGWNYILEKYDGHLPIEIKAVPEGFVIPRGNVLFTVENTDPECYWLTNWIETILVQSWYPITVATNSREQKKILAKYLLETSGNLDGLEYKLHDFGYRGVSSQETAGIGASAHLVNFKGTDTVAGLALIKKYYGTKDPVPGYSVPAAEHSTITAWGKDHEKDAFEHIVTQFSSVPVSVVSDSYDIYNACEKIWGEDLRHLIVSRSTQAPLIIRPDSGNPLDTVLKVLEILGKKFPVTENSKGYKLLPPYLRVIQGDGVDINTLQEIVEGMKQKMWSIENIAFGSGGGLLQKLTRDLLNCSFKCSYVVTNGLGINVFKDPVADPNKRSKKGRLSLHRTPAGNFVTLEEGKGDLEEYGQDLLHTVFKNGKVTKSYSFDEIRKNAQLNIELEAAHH
Experiment: NAMPT enzyme inhibition assay (BPS Bioscience NAMPT Inhibitor Screening Assay Kit)
Settings: 30 min pre-incubation, 2 h at 30° C., fluorescence
Parameter: IC50

*Q* Fill blank: measured IC50 of the compound O=C(NCCc1ccc2ocnc2c1)Nc1ccc(-c2ccncc2)c(C#Cc2ccc(F)cc2)c1 [Compound 11] is ____.
*A* > 1000 nM

*Q* Fill blank: measured IC50 of the compound O=C(NCCc1cccnc1)Nc1ccc(-c2ccc(N3CCNCC3)cc2)c(C#Cc2ccc(F)cc2)c1 [Compound 13] is ____.
*A* < 500 nM

*Q* Fill blank: measured IC50 of the compound O=C(NCCc1cccnc1)Nc1ccc(-c2ccncc2)c(C#Cc2ccc(C(=O)NCCN3CCCCC3)cc2)c1 [Compound 7] is ____.
*A* < 500 nM

*Q* Fill blank: measured IC50 of the compound O=C(NCCc1cccc(O)c1)Nc1ccc(-c2ccncc2)c(C#Cc2ccc(F)cc2)c1 [Compound 5] is ____.
*A* > 1000 nM

*Q* Fill blank: measured IC50 of the compound O=C(NCCn1ccnc1)Nc1ccc(-c2ccncc2)c(C#Cc2ccc(F)cc2)c1 [Compound 3] is ____.
*A* 500 to 1000 nM

*Q* Fill blank: measured IC50 of the compound O=C(NCCc1cccnc1)Nc1ccc(C(=O)Nc2ccccc2)c(C#Cc2ccc(C(=O)NCCN3CCCCC3)cc2)c1 [Compound 95] is ____.
*A* < 500 nM

*Q* Fill blank: measured IC50 of the compound O=C(NCCc1cccnc1)Nc1ccc(-c2ccc(C(=O)N3CCC(F)(F)CC3)cc2)c(C#Cc2ccc(F)cc2)c1 [Compound 2] is ____.
*A* < 500 nM
